tested on: S. aureus ATCC 29213; assay: MIC/MBC according to EUCAST guidelines; assay type: cell-based; conditions: Staphylococcus aureus, ATCC29213
assay metric: MBC (µg/mL)
Express the result in µg/mL but write the number alone.

molecule | MBC, µg/mL
OC1(C(F)(F)F)CC(c2ccc3c(c2)Nc2ccccc2S3)=NN1 (stereo not shown) | 32
CC1(C)S[C@@H]2[C@H](NC(=O)[C@H](N)c3ccccc3)C(=O)N2[C@H]1C(=O)O [AMP, ampicillin, reference compound] | 4

Now turn to the next molecule.
Exercise: Please supply the value of reported MBC for the item CSc1cccc(Nc2nc(C(C)(C)C)cs2)c1
Key: 32

---

Parameter 'readout' = MIC; parameter 'system' = C. jejuni ATCC 33560.
Response body: numeric value in µg/mL, unit text excluded.

Examples from the recorded data:
compound | MIC, µg/mL
N#Cc1cnn(-c2ccc(C(F)(F)F)cc2[N+](=O)[O-])c1N | 32
OC1(C(F)(F)F)CC(c2ccc3c(c2)Nc2ccccc2S3)=NN1 (stereo not shown) | 16
N#C/C(=C\C=C\c1ccccc1)c1nc2ccccc2[nH]1 | 64

Exercise: Complete the entry with MIC for CSc1cccc(NC(=S)NCCNc2c([N+](=O)[O-])cc(C(F)(F)F)cc2[N+](=O)[O-])c1
Key: 64

---

Readings of MIC for the listed compounds
test system: H. pylori Donostia 2 (LVX-R); test: MIC/MBC, broth microdilution; assay type: cell-based, Helicobacter pylori; conditions: H. pylori Donostia 2 (LVX-R)
Just the number please, in µg/mL, no unit attached.

These recorded examples may help you get a feel for the data.
compound | quantity unit | MIC
Cc1sc2c(c1C)C(O)=C(C(=O)Nc1ccc(OC(F)(F)F)cc1)S(=O)(=O)N2C [Ligand XXVIII] | µg/mL | 32
CCOC(=O)c1ccc(-n2nnc(C=CC=CN3CCOCC3)n2)cc1 [Ligand XVII] | µg/mL | 8
Cc1oc2ccccc2c1CC(=O)NNC(=S)Nc1cccc(C(F)(F)F)c1 [Ligand X] | µg/mL | 8

Field: next compound
Exercise: Report value only: MIC, H. pylori Donostia 2 (LVX-R), NC(Cn1ccc(C(F)(F)F)n1)=NOC(=O)Nc1ccc(SC(F)(F)F)cc1 [Ligand IX]
Key: 8

---

The reader will find reported FICantibiotic values listed item by item below.
tested on: H. pylori ATCC 700392; assay: Checkerboard assay with first-line antibiotics; format: cell-based, Helicobacter pylori; details: in combination with CLR (clarithromycin)

molecule | assay metric | reported
CSc1cccc(NC(=S)NCCNc2c([N+](=O)[O-])cc(C(F)(F)F)cc2[N+](=O)[O-])c1 | FICantibiotic | 1
NC(=NOC(=O)Nc1ccc(Cl)cc1)c1csc([N+](=O)[O-])c1 | FICantibiotic | 0.5
N#Cc1cnn(-c2ccc(C(F)(F)F)cc2[N+](=O)[O-])c1N | FICantibiotic | 1
N#C/C(=C\C=C\c1ccccc1)c1nc2ccccc2[nH]1 | FICantibiotic | 0.25
OC1(C(F)(F)F)CC(c2ccc3c(c2)Nc2ccccc2S3)=NN1 (stereo not drawn) | FICantibiotic | 0.5

Would you kindly look at the next entry?
Exercise: Could you please provide reported FICantibiotic for CSc1cccc(Nc2nc(C(C)(C)C)cs2)c1 ? Thanks!
Key: 0.25

---

Target: HsrA (Helicobacter pylori, UniProt O25684)
Sequence (O25684 entry or part of it): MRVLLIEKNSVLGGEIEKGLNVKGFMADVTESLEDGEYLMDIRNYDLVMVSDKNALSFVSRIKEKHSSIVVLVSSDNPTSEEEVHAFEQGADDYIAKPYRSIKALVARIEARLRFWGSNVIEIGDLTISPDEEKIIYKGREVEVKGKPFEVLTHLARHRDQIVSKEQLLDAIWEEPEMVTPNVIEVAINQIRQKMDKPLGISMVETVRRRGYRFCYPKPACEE
Assay: Isothermal titration calorimetry (ITC) with HsrA
Type: binding
Details: ITC, 25 °C; absolute error 0.1
Protocol: Molecular interactions of the selected ligands with proteins HsrA or CosR were studied by isothermal titration calorimetry (ITC), as previously described. Titrations were assessed in a high-sensitivity MicroCal Auto-iTC200 calorimeter (Malvern Panalytical, Malvern, UK). […] Thermodynamic properties such as binding stoichiometry, dissociation constants, and binding enthalpies were calculated by nonlinear least-squares regression data analysis using Origin 7.0 software.
assay metric: ΔG

record smiles | reported
N#Cc1cnn(-c2ccc(C(F)(F)F)cc2[N+](=O)[O-])c1N | –6.7 kcal/mol
NC(=NOC(=O)Nc1ccc(Cl)cc1)c1csc([N+](=O)[O-])c1 | –6.7 kcal/mol
